# assayed-system: T1, hPD-1-his (human, UniProt Q15116 25-167)
# T1 construct: domain: IgV domain; monomer in solution; biotin-labelled where captured by streptavidin; also called biotin-hPD-1-his
# T1 sequence (Q15116 other isoform, or with tags, fused parts or gaps limits assumed): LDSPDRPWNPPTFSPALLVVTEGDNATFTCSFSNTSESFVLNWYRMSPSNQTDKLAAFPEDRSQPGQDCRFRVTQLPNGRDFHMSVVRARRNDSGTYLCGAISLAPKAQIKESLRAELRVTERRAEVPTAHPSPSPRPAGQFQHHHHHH
# measurement-protocol: SPR, Exp. 3
parameter: Kd (nM)

[[record]]
binder = "38A6 (antibody, V domains shown, also called 780_46) VH: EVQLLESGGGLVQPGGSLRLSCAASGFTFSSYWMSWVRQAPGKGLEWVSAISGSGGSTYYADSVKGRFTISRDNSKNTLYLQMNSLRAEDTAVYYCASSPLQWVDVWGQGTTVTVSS VL: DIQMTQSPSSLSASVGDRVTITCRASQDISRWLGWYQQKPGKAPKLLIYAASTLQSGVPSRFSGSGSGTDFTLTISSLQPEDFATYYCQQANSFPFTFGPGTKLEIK"
value_units = "nM"
reported_relation = "<"
reported_value = 0.574

[[record]]
binder = "31B1 (antibody, V domains shown, also called 780_38; 33B1 and 31B2 (apparent misprints)) VH: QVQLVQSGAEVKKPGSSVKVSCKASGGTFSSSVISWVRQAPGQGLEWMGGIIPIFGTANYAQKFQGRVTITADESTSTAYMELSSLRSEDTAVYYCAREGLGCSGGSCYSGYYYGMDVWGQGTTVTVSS VL: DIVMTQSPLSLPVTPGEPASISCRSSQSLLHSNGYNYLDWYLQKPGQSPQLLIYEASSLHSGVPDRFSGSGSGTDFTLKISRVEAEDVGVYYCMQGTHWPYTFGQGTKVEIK"
value_units = "nM"
reported_relation = "="
reported_value = 0.353

[[record]]
binder = "38B2 (antibody, V domains shown, 24H9 derivative, IgG; also called 780_54; hPD1 Ab (38B2)) VH: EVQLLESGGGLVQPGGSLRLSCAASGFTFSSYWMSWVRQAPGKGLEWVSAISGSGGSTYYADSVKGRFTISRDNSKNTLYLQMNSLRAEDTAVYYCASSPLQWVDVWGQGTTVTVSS VL: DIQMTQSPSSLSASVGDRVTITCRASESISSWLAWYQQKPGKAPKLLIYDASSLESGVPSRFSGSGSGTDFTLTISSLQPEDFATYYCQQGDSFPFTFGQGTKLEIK"
value_units = "nM"
reported_relation = "="
reported_value = 0.932

[[record]]
binder = "33C4 (antibody, V domains shown, also called 780_39) VH: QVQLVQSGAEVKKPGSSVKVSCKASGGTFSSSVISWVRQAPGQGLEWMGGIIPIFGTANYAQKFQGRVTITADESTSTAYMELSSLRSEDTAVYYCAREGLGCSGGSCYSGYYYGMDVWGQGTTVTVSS VL: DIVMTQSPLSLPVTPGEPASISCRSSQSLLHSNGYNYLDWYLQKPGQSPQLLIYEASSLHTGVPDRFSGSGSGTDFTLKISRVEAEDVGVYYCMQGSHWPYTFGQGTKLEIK"
value_units = "nM"
reported_relation = "="
reported_value = 0.274

